Experiment: NCI Yeast Anticancer Drug Screen. Data for the mlh1 rad18 strain (AID 175)
Settings: S. cerevisiae mlh1 rad18 strain growth inhibition; at 5.0 µM (retest, dose inferred, filed as 0.5); stronger effect = higher value
About 79,000 compounds went through this panel and 15% of them were active in at least one assay; those are over-represented in the sample as a whole. Active and inactive are the calls of the source. No stated cut-off is given here; in the data, active means growth inhibition above about 70%; inactive means the rest.
recorded.endpoint: growth inhibition

// worked examples, growth inhibition included
>>> print(df.to_string())
                                   compound  recorded_endpoint      test_value
0                    Brc1cc2ccccc2c2ccccc12  growth inhibition  41% (inactive)
1                      CCOCCC(=O)NNc1ccccc1  growth inhibition  19% (inactive)
2  Cn1c(C(C)(C)OC(=O)Oc2ccccc2)cnc1[N+](=O)[O-]  growth inhibition   9% (inactive)
3                       O=C1CCCC/C1=C(\Br)I  growth inhibition  31% (inactive)

Exercise: Indicate its recorded growth inhibition; the compound in question is Cc1ccc(C)c(NC(=O)CC2SC(=Nc3ccccc3Cl)NC2=O)c1 (stereo unspecified)
Key: 31% (inactive)

Exercise: Specify measured growth inhibition for O=C(Nc1ccccc1)Oc1c(Cl)c(Cl)c(Cl)c(Cl)c1Cl .
Key: 6% (inactive)

Exercise: Output growth inhibition of O=C(O)/C(=C/c1c(O)ccc2ccccc12)c1csc(-c2nc(/C(=C\c3c(O)ccc4ccccc34)C(=O)O)cs2)n1
Key: 68% (inactive)

Exercise: State its growth inhibition for this compound: CCc1nc(N)nc(N)c1-c1ccc(NCCN)c([N+](=O)[O-])c1
Key: -31% (inactive)

Exercise: Specify measured growth inhibition for Cc1ccc(O)c(C(c2cccc(C(c3cc(C)ccc3O)c3cc(C)ccc3O)c2)c2cc(C)ccc2O)c1 .
Key: 78% (active)

Exercise: Fill in growth inhibition for record Cc1cccc2c1C1OC(=O)C3CCC=C2C31 (stereo unspecified)
Key: -107% (inactive)

Exercise: Look up and report measured growth inhibition for this entry: CCCCOP(=O)(OCCCC)C(NS(=O)(=O)c1ccccc1)(C(=O)OCC)C(F)(F)F (stereo unspecified)
Key: 26% (inactive)
